STUDY_TARGET: Tyrosyl-tRNA synthetase, putative (Trypanosoma cruzi (strain CL Brener))
Sequence (whole entry): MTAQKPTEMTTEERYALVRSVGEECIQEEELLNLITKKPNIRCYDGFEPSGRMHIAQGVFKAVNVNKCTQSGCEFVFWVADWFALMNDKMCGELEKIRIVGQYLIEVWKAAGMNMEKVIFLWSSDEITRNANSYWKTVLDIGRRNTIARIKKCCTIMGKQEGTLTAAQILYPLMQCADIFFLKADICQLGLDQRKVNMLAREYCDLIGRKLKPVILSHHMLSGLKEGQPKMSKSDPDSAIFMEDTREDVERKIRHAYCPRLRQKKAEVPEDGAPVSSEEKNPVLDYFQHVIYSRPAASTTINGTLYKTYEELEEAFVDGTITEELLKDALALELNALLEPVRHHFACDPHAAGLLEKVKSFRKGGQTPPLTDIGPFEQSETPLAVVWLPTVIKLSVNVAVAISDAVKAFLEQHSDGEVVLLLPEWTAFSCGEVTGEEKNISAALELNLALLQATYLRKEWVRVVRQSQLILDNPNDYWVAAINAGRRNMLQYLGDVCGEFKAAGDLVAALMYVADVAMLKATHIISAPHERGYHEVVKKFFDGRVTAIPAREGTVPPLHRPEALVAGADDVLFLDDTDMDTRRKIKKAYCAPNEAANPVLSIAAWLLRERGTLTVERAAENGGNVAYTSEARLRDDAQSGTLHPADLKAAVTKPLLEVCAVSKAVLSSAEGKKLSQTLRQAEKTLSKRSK
ASSAY_OVERVIEW: Trypanosoma cruzi tyrosyl tRNA synthetase (TcYRS) _High Tyrosine SOP; further: in the data most compounds retested in dose-response had high values
Type: functional
Design: scale not given: direction of the effect not stated beside the values
REPORTED_CONDITIONS: 30 µM
Provide the reported Percent Effect of each item.
Write the value in % as a bare number.

Please fill in: Percent Effect reported for CC(C)(C)c1nnc(CN2CCCC(c3cc(C(N)=O)[nH]n3)C2)o1 (stereo not given) = -2.46

Please fill in: Percent Effect reported for Cc1cc(C)c(CNC(=O)NCc2ccc3c(c2)CCC3)c(=O)[nH]1 = 5.39

Please fill in: Percent Effect reported for CC(C)Cc1noc(CN2CCOC(Cn3cncn3)C2)n1 (stereo not given) = 0

Please fill in: Percent Effect reported for Cc1cnn(C2CN(Cc3nc(C(C)(C)C)no3)C2)c1 = 8.74

Please fill in: Percent Effect reported for CCN1C(=O)C(C)(C)c2cc(NC(=O)c3ccco3)ccc21 = 12.9

Please fill in: Percent Effect reported for O=S(=O)(NCC1CCN(c2ccccn2)CC1)c1ccccc1F = 2.12

Please fill in: Percent Effect reported for CCc1nnc(CN(C)c2nc(C(C)C)nc3c2cnn3C)o1 = -2.1

Please fill in: Percent Effect reported for O=C1[C@H]2CN(CC3CC3)C[C@H]2CN1Cc1cccc(F)c1 = 2.16

Please fill in: Percent Effect reported for Cn1cnc2c1CCN(Cc1nc(COc3ccc(F)cc3)no1)C2 = 0.493

Please fill in: Percent Effect reported for Cc1nc(C)n(CC2CN(c3nnc(C)c(C)c3C#N)CCO2)n1 (stereo not given) = 7.35

----------
STUDY_TARGET: Protein translocase subunit SecA (Escherichia coli (strain K12)) (UniProt P10408)
Sequence (P10408 whole entry): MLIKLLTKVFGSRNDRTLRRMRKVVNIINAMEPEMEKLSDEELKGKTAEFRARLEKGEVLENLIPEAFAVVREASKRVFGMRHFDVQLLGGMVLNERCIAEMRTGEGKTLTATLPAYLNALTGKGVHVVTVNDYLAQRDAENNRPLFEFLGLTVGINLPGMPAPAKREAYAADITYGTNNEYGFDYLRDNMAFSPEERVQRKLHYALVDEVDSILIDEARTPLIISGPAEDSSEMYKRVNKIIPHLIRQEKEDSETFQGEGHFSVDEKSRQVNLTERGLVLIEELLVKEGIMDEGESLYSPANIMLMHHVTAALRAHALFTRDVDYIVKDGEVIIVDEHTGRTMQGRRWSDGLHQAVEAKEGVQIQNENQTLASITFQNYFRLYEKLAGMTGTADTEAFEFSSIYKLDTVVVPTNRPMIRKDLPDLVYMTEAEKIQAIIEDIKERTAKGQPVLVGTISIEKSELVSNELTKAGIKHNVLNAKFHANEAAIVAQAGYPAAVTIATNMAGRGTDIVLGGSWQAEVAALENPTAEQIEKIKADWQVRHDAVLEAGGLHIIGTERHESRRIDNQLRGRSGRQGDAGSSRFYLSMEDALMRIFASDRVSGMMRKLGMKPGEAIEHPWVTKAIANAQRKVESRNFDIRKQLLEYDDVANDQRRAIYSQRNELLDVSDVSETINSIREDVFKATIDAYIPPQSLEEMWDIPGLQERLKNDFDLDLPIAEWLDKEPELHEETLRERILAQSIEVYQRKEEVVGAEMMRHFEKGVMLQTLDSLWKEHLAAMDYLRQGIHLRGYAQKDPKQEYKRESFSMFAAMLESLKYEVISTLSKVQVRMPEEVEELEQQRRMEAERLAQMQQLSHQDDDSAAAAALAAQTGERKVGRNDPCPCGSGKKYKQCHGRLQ
ASSAY_OVERVIEW: Assay to Identify E. coli SecA ATPase Inhibitors
Type: functional
Set-up: scale not given: direction of the effect not stated beside the values
REPORTED_CONDITIONS: 30 µM
Entries with a potency or affinity are not part of this list.
Provide the reported Percent Effect of each item.
Write the value in % as a bare number.

Please fill in: Percent Effect reported for Cc1ncsc1C(=O)N(C)Cc1cccc(Cl)c1 = 0.989

Please fill in: Percent Effect reported for O=C(c1cccnc1O)N(Cc1ccsc1)CC1CCCO1 (configuration not stated) = 0.332

Please fill in: Percent Effect reported for CCOCC(=O)NC1(c2cccc(Br)c2)CC1 = -8.13

Please fill in: Percent Effect reported for CCS(=O)(=O)Nc1ccc(C(=O)NCCCN2CCCC2)cc1 = -2.09

Please fill in: Percent Effect reported for Cc1ccc(OCCCNC(=O)NC(C)c2nncn2C)cc1 (configuration not stated) = -4.22

Please fill in: Percent Effect reported for O=C(NC1CC1)[C@H]1C[C@H]2OCC[C@H]2N(CC2CCOCC2)C1 = -7.27

Please fill in: Percent Effect reported for COc1ccccc1CC(=O)NS(=O)(=O)c1cncc(Br)c1 = -4.15

----------
STUDY_TARGET: Tyrosyl-tRNA synthetase, putative (Trypanosoma cruzi (strain CL Brener)) (UniProt Q4DSP6)
ASSAY_OVERVIEW: Trypanosoma cruzi tyrosyl tRNA synthetase (TcYRS) _High Tyrosine SOP; further: in the data most compounds retested in dose-response had high values
Format: functional
Set-up: scale not given: direction of the effect not stated beside the values
REPORTED_CONDITIONS: 30 µM
Provide the reported Percent Effect of each item.
Write the value in % as a bare number.

Please fill in: Percent Effect reported for O=C1CC(c2ccc(C(=O)O)cc2)c2ncn(-c3ccccc3)c2N1 (configuration not stated) = 9.52

Please fill in: Percent Effect reported for c1ccc(Cn2cc(CNC3CCc4ncnn4C3)cn2)cc1 (configuration not stated) = 3.12

Please fill in: Percent Effect reported for Cc1ccc(C(=O)N2Cc3ccccc3C2)cc1N1CCNC1=O = 7.1

Please fill in: Percent Effect reported for COCCN(C)C(=O)c1ccc(OC)cc1O = 4.17

Please fill in: Percent Effect reported for O=C(c1ccccn1)N1C[C@@H]2CC[C@H](C1)N(C(=O)CCc1cccs1)C2 = 3.23

Please fill in: Percent Effect reported for Cc1nc(C)c(CC(=O)Nc2nnc(C)s2)c(=O)[nH]1 = 4.41

Please fill in: Percent Effect reported for CNC(=O)[C@H]1C[C@@H]2CN(C(=O)c3ccco3)C[C@@H]2N1S(C)(=O)=O = 6.25

Please fill in: Percent Effect reported for Cn1cc(CN2CCCN(C(=O)c3ccc4c(c3)COC4)CC2)cn1 = 7.39

Please fill in: Percent Effect reported for CC(NC(=O)NCCCn1cccn1)c1cccnc1 (configuration not stated) = -1.64

Please fill in: Percent Effect reported for Cc1csc(N2CCN(C(=O)CCn3cncn3)CC2)n1 = 8.37

Please fill in: Percent Effect reported for O=C(C1=CCCC1)N1C[C@H](Oc2cccnc2)[C@H]2OCCC[C@H]21 = 92.1

Please fill in: Percent Effect reported for CN1CCN(Cc2ccccc2CNC(=O)c2ccc(Br)cc2F)CC1 = 5.38

Please fill in: Percent Effect reported for O=C(c1ccc[nH]1)N1CCc2c(COCC3CC3)cncc2C1 = 3.24

Please fill in: Percent Effect reported for Brc1cc2c(cc1CN1CCC(N3CCCCC3)CC1)OCCO2 = 5.26

Please fill in: Percent Effect reported for Cc1ccoc1C(=O)N1C[C@H]2CCC[C@@]2(COCc2ccncc2)C1 = 5.29

Please fill in: Percent Effect reported for COCC1CC2(CCN(C(=O)c3cccc(C)c3)CC2)CO1 (configuration not stated) = -3.17

Please fill in: Percent Effect reported for NC(=O)c1cc(C2CCCN(C(=O)CCc3ccsc3)C2)n[nH]1 (configuration not stated) = 3.88

Please fill in: Percent Effect reported for CCOC(=O)CCC(=O)N1CCC(Oc2ccc(C(F)(F)F)cn2)CC1 = 3.17

Please fill in: Percent Effect reported for Cc1noc(C(C)C)c1C(=O)NCc1cc(F)cc(F)c1 = 3.88

Please fill in: Percent Effect reported for Cc1nnc(Nc2cccc(C3CCN(CCO)CC3)n2)s1 = 6.38

Please fill in: Percent Effect reported for CCCS(=O)(=O)N1C[C@H]2OC(=O)N(CCc3cccc(Cl)c3)[C@H]2C1 = -0.546

Please fill in: Percent Effect reported for Cn1nccc1-c1ccc2nc(C3CCN(CCO)CC3)nn2c1 = 5.21

Please fill in: Percent Effect reported for CCN(CC)c1ccc(-c2nc(-c3cccc(OC)c3OC)no2)cn1 = 1.64

Please fill in: Percent Effect reported for O=C(CCC1CC1)N1C[C@@H](CN2CCCC2)[C@@H](CO)C1 = 2.15

Please fill in: Percent Effect reported for COCC1CC2(CCN(C(=O)c3cccn3C)CC2)CN1C(C)C (configuration not stated) = 7.92

Please fill in: Percent Effect reported for CCc1nnsc1C(=O)NC1CCN(c2ccccn2)CC1 = 3.23

Please fill in: Percent Effect reported for COC(=O)c1cc(C(=O)N2CCCCCC2)n(-c2ccccc2)n1 = 2.45

Please fill in: Percent Effect reported for O=C(c1cncc(N2CCC3(CCNCC3)CC2)n1)N1CCCC1 = 7.1

Please fill in: Percent Effect reported for CCc1nnc2n1CCN(C(=O)CN(C)Cc1ccccc1)C2 = 4.43

Please fill in: Percent Effect reported for O=C(Cn1ccnc1)N1C[C@@H]2CC[C@H](Oc3ccccc3)[C@@H]2C1 = 3.23

Please fill in: Percent Effect reported for O=C1NCCN1C1CCN(Cc2nc(-c3ccoc3)no2)CC1 = 0.971

Please fill in: Percent Effect reported for OC1(Cn2ccc3ncccc32)CCN(Cc2ccccn2)CC1 = -3.23

Please fill in: Percent Effect reported for O=C(c1cncc(N2CCC(O)(CO)CC2)n1)N1CCCC1 = 9.29

Please fill in: Percent Effect reported for Cc1cnn(CCC(=O)N2CCCN(c3ncccc3C#N)CC2)c1 = 4.17

Please fill in: Percent Effect reported for O=C(NCC1CCN(C(=O)c2ccoc2)CC1)c1ccccc1Br = 3.23

Please fill in: Percent Effect reported for Cc1nc(CN2CCN(C(=O)c3ccn(C)c(=O)c3)CC2)cs1 = 9.38

Please fill in: Percent Effect reported for O=C(c1cccnc1)N1CCC2(CC1)CCN(c1ccsc1)C2=O = -5.29
